# Assayed system: T1, human PCSK9 (proprotein convertase subtilisin kexin type 9) (human, UniProt Q8NBP7 31-692)
# T1 construct: Directly immobilized (SPR ProteOn), biotinylated (BLI), or in solution, depending on the assay; also called hPCSK9
# T1 sequence (Q8NBP7 31-692 limits assumed): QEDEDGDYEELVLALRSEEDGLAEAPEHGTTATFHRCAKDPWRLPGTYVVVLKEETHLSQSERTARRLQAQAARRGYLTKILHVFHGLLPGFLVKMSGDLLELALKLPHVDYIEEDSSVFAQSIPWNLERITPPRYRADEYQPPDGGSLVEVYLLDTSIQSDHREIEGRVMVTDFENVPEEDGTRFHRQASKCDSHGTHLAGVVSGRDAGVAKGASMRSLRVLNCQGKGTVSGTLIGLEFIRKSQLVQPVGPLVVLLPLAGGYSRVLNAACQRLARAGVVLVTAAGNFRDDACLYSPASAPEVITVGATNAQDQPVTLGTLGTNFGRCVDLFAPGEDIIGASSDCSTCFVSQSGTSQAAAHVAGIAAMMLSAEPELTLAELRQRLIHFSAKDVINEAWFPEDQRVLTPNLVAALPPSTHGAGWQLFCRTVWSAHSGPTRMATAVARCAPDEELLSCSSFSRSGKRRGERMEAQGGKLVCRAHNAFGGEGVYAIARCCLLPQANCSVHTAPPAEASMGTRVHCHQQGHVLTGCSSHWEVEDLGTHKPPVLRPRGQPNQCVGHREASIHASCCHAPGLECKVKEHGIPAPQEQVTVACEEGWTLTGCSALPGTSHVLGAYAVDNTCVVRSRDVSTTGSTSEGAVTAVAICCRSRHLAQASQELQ
# Test: FRET direct binding, anti-his6 antibody
pEC50: −log10 of the molar value.
Reported pEC50 is given for each of the following binders.
Reported metric: pEC50

1. 2381B04 (designed binder, Anti-PCSK9 Adnectin, His6-tagged) MGVSDVPRDLEVVAATPTSLLISWEPFSRLPGGGEYYRITYGETGGNSPLQQFTVPGSKGTATISGLKPGVDYTITVYAVEYPYEHSGYYHRPISINYRTEIDKPSQHHHHHH	8.38
2. 1459D05 (designed binder, also called ATI000891; ATI-891) MGVSDVPRDLEVVAATPTSLLISWPPPSHGYGYYRITYGETGGNSPVQEFTVPPGKGTATISGLKPGVDYTITVYAVEYPYKHSGYYHRPISINYRTEIDKPSQHHHHHH	8.41
3. 2013E01 (designed binder, Anti-PCSK9 Adnectin, His6-tagged, unmodified (not PEGylated); also called ATI001081) MGVSDVPRDLEVVAATPTSLLISWVPPSDDYGYYRITYGETGGNSPVQEFTVPIGKGTATISGLKPGVDYTITVYAVEFPWPHAGYYHRPISINYRTEIDKPSQHHHHHH	9.05
